Target: Fibroblast growth factor receptor 3 (Homo sapiens)
Sequence (P22607 whole entry): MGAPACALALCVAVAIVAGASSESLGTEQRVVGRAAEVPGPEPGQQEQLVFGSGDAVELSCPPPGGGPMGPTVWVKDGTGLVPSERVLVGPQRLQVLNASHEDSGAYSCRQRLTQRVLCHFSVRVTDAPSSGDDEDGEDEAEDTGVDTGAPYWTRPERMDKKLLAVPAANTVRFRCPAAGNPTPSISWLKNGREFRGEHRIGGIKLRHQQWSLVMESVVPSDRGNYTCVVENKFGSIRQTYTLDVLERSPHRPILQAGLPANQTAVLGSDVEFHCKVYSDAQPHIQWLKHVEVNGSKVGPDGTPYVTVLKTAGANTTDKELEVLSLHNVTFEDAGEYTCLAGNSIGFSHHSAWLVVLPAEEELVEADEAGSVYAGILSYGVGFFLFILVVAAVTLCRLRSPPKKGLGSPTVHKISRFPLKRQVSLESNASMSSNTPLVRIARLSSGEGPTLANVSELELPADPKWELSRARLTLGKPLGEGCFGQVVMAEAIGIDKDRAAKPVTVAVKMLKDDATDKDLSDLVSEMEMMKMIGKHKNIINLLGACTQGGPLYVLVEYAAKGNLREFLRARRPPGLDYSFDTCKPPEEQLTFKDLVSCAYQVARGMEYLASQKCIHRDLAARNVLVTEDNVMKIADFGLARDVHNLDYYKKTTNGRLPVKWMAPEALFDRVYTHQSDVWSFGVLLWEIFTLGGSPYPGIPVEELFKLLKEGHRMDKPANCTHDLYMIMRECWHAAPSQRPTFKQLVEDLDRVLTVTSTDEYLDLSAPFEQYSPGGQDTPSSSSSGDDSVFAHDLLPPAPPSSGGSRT
Assay: Inhibition of recombinant human FGFR3 using poly (Glu, Tyr) 4:1 as substrate after 60 mins by ELISA
readout.name: pIC50
Scale note: pIC50 = -log10(concentration in M).

Report pIC50 for C[C@@H](Oc1ccc2[nH]nc(-c3nc4cc(N5CCN(C)CC5)ccc4[nH]3)c2c1)c1c(Cl)cncc1Cl
8.70

###

Biological target: Proto-oncogene tyrosine-protein kinase Src (Homo sapiens, UniProt P12931)
Sequence (P12931 2-536 limits assumed): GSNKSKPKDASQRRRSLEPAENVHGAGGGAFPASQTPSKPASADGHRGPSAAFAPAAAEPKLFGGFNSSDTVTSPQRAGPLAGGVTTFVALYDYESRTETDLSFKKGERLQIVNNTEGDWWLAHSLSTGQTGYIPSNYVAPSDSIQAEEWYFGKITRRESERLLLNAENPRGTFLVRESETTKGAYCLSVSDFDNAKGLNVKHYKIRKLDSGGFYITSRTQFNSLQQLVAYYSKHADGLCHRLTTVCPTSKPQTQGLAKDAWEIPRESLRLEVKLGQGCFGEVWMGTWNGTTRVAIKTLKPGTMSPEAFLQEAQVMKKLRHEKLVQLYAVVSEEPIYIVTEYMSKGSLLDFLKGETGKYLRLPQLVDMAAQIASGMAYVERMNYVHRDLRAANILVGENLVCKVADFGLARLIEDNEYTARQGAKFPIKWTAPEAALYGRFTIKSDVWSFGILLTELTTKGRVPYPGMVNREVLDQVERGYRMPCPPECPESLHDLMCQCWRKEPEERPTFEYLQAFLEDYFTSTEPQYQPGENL
Assay: Inhibition of recombinant human c-Src using poly (Glu, Tyr) 4:1 as substrate after 60 mins by ELISA
readout.name: IC50

Report IC50 on Proto-oncogene tyrosine-protein kinase Src (Homo sapiens, UniProt P12931) for this entry: C[C@@H](Oc1ccc2[nH]nc(-c3nc4cc(N5CCN(C)CC5)ccc4[nH]3)c2c1)c1c(Cl)cncc1Cl
> 100 nM
